System: PLC
procedureDetails: Cytotoxicity against human PLC cells after 72 hrs by SRB assay
Assay type: functional, cell-based
readoutKind: pIC50
Entry type: numeric. Quantity: pIC50, the -log10 of concentration in molar units.

Entry `Cc1ccc(S(=O)(=O)n2cnc3c(N4CCN(c5ccc(C(F)(F)F)cc5)CC4)ncnc32)cc1` ; pIC50 = 5.43

Entry `FC(F)(F)c1ccc(N2CCN(c3ncnc4[nH]cnc34)CC2)cc1` ; pIC50 = 4.98

Entry `FC(F)(F)c1ccc(N2CCN(c3ncnc4c3ncn4C3CCCC3)CC2)cc1` ; pIC50 = 5.19

====

Test system: T47D
procedureDetails: Cytotoxicity against human T47D cells after 72 hrs by SRB assay
Format: functional, cell-based
Give IC50 for every item shown.
Write it as a number; the unit µM goes unstated.

Entry C1=CC(CCNc2ncnc3[nH]cnc23)CCC1 (stereo not given) ; IC50 = 40.3

Entry `FC(F)(F)c1ccc(N2CCN(c3ncnc4[nH]cnc34)CC2)cc1` ; IC50 = 39.4

Entry `CC1CCN(c2ncnc3c2ncn3C2CCCC2)CC1` ; IC50 = 21

Entry `Cc1ccc(S(=O)(=O)n2cnc3c(NCc4ccc(Cl)cc4Cl)ncnc32)cc1` ; IC50 = 47.6

Entry `Clc1ccc(CNc2ncnc3[nH]cnc23)c(Cl)c1` ; IC50 = 147
